Data credit: PubChem BioAssay AID463115

// reported inhibition for each item listed
# Test Target: Furin (Homo sapiens)
# Assay Text: human furin inhibitors, primary screen, biochemical, fluorescence intensity (AID 463115)
# Measurement Parameters: purified furin, fluorogenic substrate cleavage, hits give high values; at 30 µM unless noted
The campaign covered roughly 220,000 compounds. About 130 (0.059%) were called active. The list comes from a sample in which actives are over-represented; it also holds close analogues and randomly drawn compounds.

Compound: C/C=C/C(=O)Nc1ccc(N2CCN(c3ccc(C(F)(F)F)cn3)CC2)nc1
inhibition: -27.8% (inactive)
//
Compound: CCC(=O)N(Cc1cc2ccccc2[nH]c1=O)c1ccc(OC)cc1
inhibition: -11.6% (inactive)
//
Compound: Cc1ccc(C2(C(F)(F)F)N=C3Sc4cc(C)cc(C)c4N3C(=O)N2)cc1 (stereo unspecified)
inhibition: -11.5% [at 20 µM] (inactive)
//
Compound: N#Cc1ccccc1NC(=O)COc1c(Br)cc(Br)c2cccnc12
inhibition: -14.7% (inactive)
//
Compound: CN(C)c1ccnc2sc3c(=O)n(-c4ccc(Cl)cc4)cnc3c12
inhibition: -7.85% [at 20 µM] (inactive)
//
Compound: CCc1ccc(NC(=O)CC2C(=O)NCCN2C(=S)Nc2ccccc2)cc1 (stereo unspecified)
inhibition: -22.7% (inactive)
//
Compound: O=C(CC1SCCNC1=O)Nc1ccc(Cl)c(Cl)c1 (stereo unspecified)
inhibition: -21.8% (inactive)
//
Compound: CC(NC(=O)C(C)(C)C)C(c1cccs1)N1CCN(Cc2ccccc2)CC1 (stereo unspecified)
inhibition: -27.5% (inactive)
//
Compound: Cc1ccc(N(Cc2cc3ccccc3[nH]c2=O)C(=O)c2cccs2)cc1
inhibition: -16% (inactive)
//
Compound: Cc1cc(Cl)c(S(=O)(=O)N(C)C)cc1OCC(N)=O
inhibition: -12.9% [at 20 µM] (inactive)
//
Compound: CC(NC(=O)Nc1ccccc1)C(c1cccs1)N1CCN(c2ccccc2)CC1 (stereo unspecified)
inhibition: -13.8% (inactive)

---

// reported inhibition for each item listed
# Test Target: Furin (Homo sapiens)
# Assay Text: human furin inhibitors, primary screen, biochemical, fluorescence intensity (AID 463115)
# Measurement Parameters: purified furin, fluorogenic substrate cleavage, hits give high values; at 30 µM unless noted
Among all 220,000 compounds or so, about 130 (0.059%) were called active. What follows is part of a selection rich in actives, with near analogues and random picks from the rest.
Measured Endpoint: inhibition

Compound: CC12CN3CCN(CC(C3)/C1=N\NC(=O)c1ccccc1N)C2
Measured Endpoint: inhibition
Measured: -14.7% (inactive)
--
Compound: CC(C)c1cc(C(N)=O)c(NC(=O)c2cccc(COc3ccc(Br)cc3)c2)s1
Measured Endpoint: inhibition
Measured: -15.1% [at 20 µM] (inactive)
--
Compound: CCCCNC(=O)N1CCN(S(C)(=O)=O)CC1
Measured Endpoint: inhibition
Measured: -17.1% (inactive)
--
Compound: COC(=O)c1ccc(C(=O)OC)c(NC(=S)N2CCN(c3ccc(F)cc3)CC2)c1
Measured Endpoint: inhibition
Measured: -22.8% (inactive)
--
Compound: O=C(/C=C/NNC(=O)c1cccc(Br)c1)c1ccccc1
Measured Endpoint: inhibition
Measured: 0.209% [at 20 µM] (inactive)
--
Compound: O=C(NN1C(=O)C2C(C1=O)C1C=CC2C12CC2)c1ccccc1Cl (stereo unspecified)
Measured Endpoint: inhibition
Measured: -7.61% (inactive)
